biological target: EGFR wildtype (WT) (Homo sapiens); experiment: Biochemical EGFR kinase inhibition assay (Lance Ultra TR-FRET), wildtype; conditions: Km ATP; read-out: IC50 WT (nM) Km ATP
Sequence (P00533 25-1210): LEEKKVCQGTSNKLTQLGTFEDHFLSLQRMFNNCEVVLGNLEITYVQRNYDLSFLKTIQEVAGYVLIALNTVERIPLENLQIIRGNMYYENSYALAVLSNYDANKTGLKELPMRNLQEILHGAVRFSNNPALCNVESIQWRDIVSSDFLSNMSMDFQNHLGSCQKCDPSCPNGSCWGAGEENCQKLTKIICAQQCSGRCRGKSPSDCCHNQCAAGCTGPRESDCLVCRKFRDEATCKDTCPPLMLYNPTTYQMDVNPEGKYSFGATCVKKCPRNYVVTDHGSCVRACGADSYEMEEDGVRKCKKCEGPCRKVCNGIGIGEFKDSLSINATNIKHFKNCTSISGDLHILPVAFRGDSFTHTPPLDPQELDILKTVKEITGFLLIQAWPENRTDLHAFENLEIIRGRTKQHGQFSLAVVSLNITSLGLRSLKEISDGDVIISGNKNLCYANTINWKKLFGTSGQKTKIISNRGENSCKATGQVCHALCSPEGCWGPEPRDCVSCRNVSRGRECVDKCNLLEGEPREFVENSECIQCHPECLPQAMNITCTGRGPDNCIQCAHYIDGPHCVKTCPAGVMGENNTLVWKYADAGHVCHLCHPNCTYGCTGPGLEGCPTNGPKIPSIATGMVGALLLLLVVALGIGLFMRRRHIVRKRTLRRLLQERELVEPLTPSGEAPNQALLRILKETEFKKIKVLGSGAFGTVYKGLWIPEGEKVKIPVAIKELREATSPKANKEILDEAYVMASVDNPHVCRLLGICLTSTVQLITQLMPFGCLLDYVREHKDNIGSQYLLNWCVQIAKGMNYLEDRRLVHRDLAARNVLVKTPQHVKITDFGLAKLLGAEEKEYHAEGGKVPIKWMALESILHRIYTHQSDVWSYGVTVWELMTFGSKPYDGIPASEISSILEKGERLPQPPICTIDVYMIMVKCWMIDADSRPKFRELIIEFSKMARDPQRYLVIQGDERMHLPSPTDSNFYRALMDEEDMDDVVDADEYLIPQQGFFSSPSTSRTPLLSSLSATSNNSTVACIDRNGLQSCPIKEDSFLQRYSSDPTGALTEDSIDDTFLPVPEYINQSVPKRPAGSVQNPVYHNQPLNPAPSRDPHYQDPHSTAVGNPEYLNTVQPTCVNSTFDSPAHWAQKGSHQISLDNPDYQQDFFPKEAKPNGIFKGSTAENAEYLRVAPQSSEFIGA
measure: IC50 (nM)

a: COCCC#Cc1cnc(Nc2ccnc(-c3cnn(S(=O)(=O)C4CC4)c3)n2)cc1NC(C)C [Example 22]
b: O=S(=O)(C1CC1)n1cc(-c2nccc(Nc3cc(N[C@H]4CCC[C@H](O)C4)c(C#Cc4cnn(C(F)(F)F)c4)cn3)n2)cn1 [Example 103]
Q. Which entry shows the lesser value of IC50 here, a or b ? Use the label to indicate which entry you chose.
A. a

====

target: UniProt P00533; assay: Biochemical EGFR kinase inhibition assay (Lance Ultra TR-FRET), wildtype; conditions: Km ATP; read-out: IC50 WT (nM) Km ATP
measure: IC50 (nM)

{"columns": ["compound", "display.unit", "IC50"],
 "data": [
  ["Cn1cc(C#Cc2cnc(Nc3ccnc(-c4cnn(S(=O)(=O)C5CC5)c4)n3)cc2N[C@H]2CCC[C@H](O)C2)cn1 [Example 43]", "nM", 20.3],
  ["Cn1cc(C#Cc2cnc(Nc3ccnc(-c4cnn(S(=O)(=O)C5CC5)c4)n3)cc2N2CCCC(O)CC2)cn1 (stereo not drawn) [Example 77]", "nM", 97],
  ["CC1(CO)CCN(c2cc(Nc3ccnc(-c4cnn(S(=O)(=O)C5CC5)c4)n3)ncc2C#Cc2cnn(CCN3CCOCC3)c2)CC1 [Example 232]", "nM", 0.9],
  ["CN(C)C[C@H]1CC[C@H](COc2cc(Nc3ccnc(-c4cnn(S(=O)(=O)C5CC5)c4)n3)ncc2C#Cc2cnn(CCF)c2)CC1 [Example 61]", "nM", 4.2]
]}

1: Cn1cc(C#Cc2cnc(Nc3ccnc(-c4cnn(S(=O)(=O)C5CC5)c4)n3)cc2N[C@H]2CC[C@@H](NCCF)CC2)cn1 [Example 80]
2: O=S(=O)(C1CC1)n1cc(-c2nccc(Nc3cc(N[C@H]4CC[C@@H](O)CC4)c(C#Cc4cnn(C(F)(F)F)c4)cn3)n2)cn1 [Example 102]
Q. Which entry has a larger number for IC50, 1 or 2 ? Use the label to indicate which entry you chose.
A. 2

====

biological target: EGFR Del19/C797S (Homo sapiens, UniProt P00533, C797S/DEL746-750); assay: Biochemical EGFR kinase inhibition assay (Lance Ultra TR-FRET), double mutant del19/C797S; conditions: IC50 Del19/C797S (nM), 100 μM ATP
Sequence (P00533 with tags, fused parts or gaps DEL746-750/C797S): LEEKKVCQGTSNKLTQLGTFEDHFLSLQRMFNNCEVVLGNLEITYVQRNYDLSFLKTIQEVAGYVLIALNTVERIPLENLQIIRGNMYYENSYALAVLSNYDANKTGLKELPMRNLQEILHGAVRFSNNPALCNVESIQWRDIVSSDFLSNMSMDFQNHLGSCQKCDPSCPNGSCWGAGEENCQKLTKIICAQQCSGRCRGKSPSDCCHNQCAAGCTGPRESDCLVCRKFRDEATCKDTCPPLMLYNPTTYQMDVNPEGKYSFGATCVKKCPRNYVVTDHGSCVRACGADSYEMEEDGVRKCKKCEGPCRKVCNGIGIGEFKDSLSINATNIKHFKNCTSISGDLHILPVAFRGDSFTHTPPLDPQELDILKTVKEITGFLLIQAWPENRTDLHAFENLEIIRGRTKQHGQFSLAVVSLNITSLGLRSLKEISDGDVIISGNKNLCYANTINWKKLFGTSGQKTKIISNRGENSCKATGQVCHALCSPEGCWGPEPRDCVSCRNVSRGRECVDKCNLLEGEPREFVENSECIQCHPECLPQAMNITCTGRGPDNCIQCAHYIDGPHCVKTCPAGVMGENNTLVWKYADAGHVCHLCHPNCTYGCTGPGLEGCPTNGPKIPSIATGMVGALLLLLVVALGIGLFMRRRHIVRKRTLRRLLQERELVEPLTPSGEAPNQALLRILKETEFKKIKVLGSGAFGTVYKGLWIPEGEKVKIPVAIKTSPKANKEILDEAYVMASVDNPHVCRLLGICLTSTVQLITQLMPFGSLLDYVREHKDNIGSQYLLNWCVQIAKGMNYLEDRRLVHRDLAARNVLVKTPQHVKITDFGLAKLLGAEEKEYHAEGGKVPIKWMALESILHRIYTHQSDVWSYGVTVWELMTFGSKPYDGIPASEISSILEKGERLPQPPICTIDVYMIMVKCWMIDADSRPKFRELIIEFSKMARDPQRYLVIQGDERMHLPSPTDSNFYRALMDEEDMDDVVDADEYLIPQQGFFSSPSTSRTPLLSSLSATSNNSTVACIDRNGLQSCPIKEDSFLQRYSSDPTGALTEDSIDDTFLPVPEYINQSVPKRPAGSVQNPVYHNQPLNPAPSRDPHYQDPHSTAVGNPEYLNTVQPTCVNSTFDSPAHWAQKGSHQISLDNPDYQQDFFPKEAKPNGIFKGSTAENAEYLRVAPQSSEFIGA
measure: IC50 (nM)

{"columns": ["compound", "assayed.system", "reported.measurement"],
 "data": [
  ["CC1(CO)CCN(c2cc(Nc3ccnc(-c4cnn(S(=O)(=O)C5CC5)c4)n3)ncc2C#Cc2cnc(CN3CCOCC3)s2)CC1", "EGFR Del19/C797S (Homo sapiens, UniProt P00533, C797S/DEL746-750)", 1.8],
  ["Cc1cnc(C#Cc2cnc(Nc3ccnc(-c4cnn(S(=O)(=O)C5CC5)c4)n3)cc2N[C@@H]2CCC[C@H](O)C2)cn1", "EGFR Del19/C797S (Homo sapiens, UniProt P00533, C797S/DEL746-750)", 19.9],
  ["CC1(CO)CCN(c2cc(Nc3ccnc(-c4cnn(S(=O)(=O)C5CC5)c4)n3)ncc2C#Cc2cnn(C3CCOC3)c2)CC1 (stereo not drawn)", "EGFR Del19/C797S (Homo sapiens, UniProt P00533, C797S/DEL746-750)", 0.5],
  ["CN1CCN(Cc2ccc(C#Cc3cnc(Nc4ccnc(-c5cnn(S(=O)(=O)C6CC6)c5)n4)cc3N3CCC4(CCO4)CC3)cc2)CC1", "EGFR Del19/C797S (Homo sapiens, UniProt P00533, C797S/DEL746-750)", 0.9]
]}

A: CC(=O)C1CCN(c2cc(Nc3ccnc(-c4cnn(S(=O)(=O)C5CC5)c4)n3)ncc2C#Cc2cnn(C(F)(F)F)c2)CC1
B: O=C1CCN(c2cc(Nc3ccnc(-c4cnn(S(=O)(=O)C5CC5)c4)n3)ncc2C#Cc2cnn(C3CCOCC3)c2)CC1
Q. Which entry has a larger number for IC50, A or B ? Use the label to indicate which entry you chose.
A. A
